B1: ZBTB22 (parent)
chain: AVLAASSPYFHDQVLLKGMTSISL

Variants of: B1
assay-name: protein stability index of a GFP-peptide fusion (GPS, HEK-293T) (PSI 1-6); higher = more stable;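 also: lentivirally expressed fusions sorted by FACS into six bins by GFP to DsRed ratio, PSI derived from sequencing read proportions per bin multiplied by bin number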
condition-set: c terminus: a fixed tail appended
Assign TRUE to entries whose protein stability index meets or exceeds 2; assign FALSE to the rest.

[
  {
    "variant-descriptor": "G18W",
    "class-assignment": "TRUE"
  },
  {
    "variant-descriptor": "M19E",
    "class-assignment": "FALSE"
  },
  {
    "variant-descriptor": "T20V",
    "class-assignment": "TRUE"
  },
  {
    "variant-descriptor": "G18V",
    "class-assignment": "TRUE"
  },
  {
    "variant-descriptor": "F10R",
    "class-assignment": "FALSE"
  },
  {
    "variant-descriptor": "S21K",
    "class-assignment": "TRUE"
  },
  {
    "variant-descriptor": "V2S",
    "class-assignment": "TRUE"
  },
  {
    "variant-descriptor": "Y9P",
    "class-assignment": "FALSE"
  },
  {
    "variant-descriptor": "Q13M",
    "class-assignment": "TRUE"
  },
  {
    "variant-descriptor": "Q13T",
    "class-assignment": "TRUE"
  },
  {
    "variant-descriptor": "L24D",
    "class-assignment": "FALSE"
  },
  {
    "variant-descriptor": "V14S",
    "class-assignment": "TRUE"
  },
  {
    "variant-descriptor": "Q13K",
    "class-assignment": "FALSE"
  },
  {
    "variant-descriptor": "L16F",
    "class-assignment": "TRUE"
  },
  {
    "variant-descriptor": "M19P",
    "class-assignment": "TRUE"
  },
  {
    "variant-descriptor": "A4E",
    "class-assignment": "TRUE"
  },
  {
    "variant-descriptor": "L24I",
    "class-assignment": "TRUE"
  },
  {
    "variant-descriptor": "A4F",
    "class-assignment": "TRUE"
  },
  {
    "variant-descriptor": "P8A",
    "class-assignment": "TRUE"
  },
  {
    "variant-descriptor": "P8L",
    "class-assignment": "TRUE"
  }
]

These entries and their values trace back to the supplement of paper PMC10567573.
